TARGET SYSTEM: human 5-HT2AR (Homo sapiens, UniProt P28223)
Sequence (P28223 whole entry): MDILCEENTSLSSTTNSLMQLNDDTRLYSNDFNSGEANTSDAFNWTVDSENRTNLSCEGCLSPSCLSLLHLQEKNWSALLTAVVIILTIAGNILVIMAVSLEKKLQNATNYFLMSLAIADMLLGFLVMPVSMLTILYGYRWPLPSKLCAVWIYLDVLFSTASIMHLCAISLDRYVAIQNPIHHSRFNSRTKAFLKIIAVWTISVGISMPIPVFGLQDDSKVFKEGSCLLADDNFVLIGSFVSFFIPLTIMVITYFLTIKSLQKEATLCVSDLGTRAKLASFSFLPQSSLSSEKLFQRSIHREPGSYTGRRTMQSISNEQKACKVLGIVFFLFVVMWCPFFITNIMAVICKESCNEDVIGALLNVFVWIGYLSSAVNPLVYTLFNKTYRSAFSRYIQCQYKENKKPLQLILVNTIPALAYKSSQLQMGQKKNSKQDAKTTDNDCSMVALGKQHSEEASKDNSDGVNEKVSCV
PROCEDURE TEXT: HTRF-based IP1 accumulation assay (5-HT2AR antagonistic effect)
ASSAY SETUP: HEK293 cells overexpressing human 5-HT2AR; serotonin at EC80
ASSAY METRIC: IC50

Request: Any idea what IC50 was measured for `O=C(NCC1CCC(F)(F)CC1)c1ccc(C#Cc2ccccc2F)cc1` ?
Response: < 100 nM

Request: Any idea what IC50 was measured for `O=C(NCC1(NC2CC2)CCC1)c1ccc(C#Cc2ccncc2)cc1F` ?
Response: 100 to 500 nM

Request: Any idea what IC50 was measured for `CC1(CNC(=O)c2ccc(C#Cc3ccc(F)cc3)cc2)COC1` ?
Response: 100 to 500 nM

Request: Any idea what IC50 was measured for O=C(NCC1CCCCC1O)c1ccc(C#Cc2ccccc2F)cc1 (stereo not shown) ?
Response: 100 to 500 nM

Request: Any idea what IC50 was measured for CC1(C)CC(CNC(=O)c2ccc(C#Cc3ccccc3F)cc2)CCO1 (stereo not shown) ?
Response: 500 to 1000 nM

Request: Any idea what IC50 was measured for O=C(NCC1CCCCO1)c1ccc(C#Cc2ccccc2F)cc1 (stereo not shown) ?
Response: 100 to 500 nM

Request: Any idea what IC50 was measured for `O=C(NCC1(NC2CC2)CCCC1)c1ccc(C#Cc2ccc(F)cc2)cc1` ?
Response: < 100 nM

Request: Any idea what IC50 was measured for `O=C(NCC1(NC2CC2)CCOCC1)c1ccc(C#Cc2ccccc2F)cc1` ?
Response: < 100 nM

Request: Any idea what IC50 was measured for O=C(NCC1CCCOC1)c1ccc(C#Cc2ccccc2F)cc1 (stereo not shown) ?
Response: 100 to 500 nM

Request: Any idea what IC50 was measured for `O=C(NCC1(CO)CCOCC1)c1ccc(C#Cc2ccccc2F)cc1` ?
Response: 500 to 1000 nM

Request: Any idea what IC50 was measured for `O=C(NC[C@@H]1CCOC1)c1ccc(C#Cc2ccc(F)cc2)cc1` ?
Response: < 100 nM

Request: Any idea what IC50 was measured for `O=C(NCC1(CCCO)CCCCC1)c1ccc(C#Cc2ccccc2F)cc1` ?
Response: 1000 to 2000 nM

Request: Any idea what IC50 was measured for `O=C(NCC1(NC2CC2)CCCCCC1)c1ccc(C#Cc2ccc(F)cn2)cc1` ?
Response: 100 to 500 nM

Request: Any idea what IC50 was measured for `CCC1(CNC(=O)c2ccc(C#Cc3ccc(F)cc3F)cc2)COC1` ?
Response: < 100 nM

Request: Any idea what IC50 was measured for `CC1(CNC(=O)c2ccc(C#Cc3ccc(F)cc3F)cc2)CCCC1` ?
Response: 100 to 500 nM

Request: Any idea what IC50 was measured for `O=C(NCC1(O)COC1)c1ccc(C#Cc2ccccc2F)cc1` ?
Response: 500 to 1000 nM

Request: Any idea what IC50 was measured for `COC(=O)CC1(CNC(=O)c2ccc(C#Cc3ccccc3F)cc2)CCOCC1` ?
Response: 500 to 1000 nM

Request: Any idea what IC50 was measured for `O=C(NCC1(NC2CC2)CCC1)c1ccc(C#Cc2ccccc2F)cc1` ?
Response: < 100 nM

Request: Any idea what IC50 was measured for `O=C(NCC1(NC2CC2)CCCCCC1)c1ccc(C#Cc2ccc(F)cc2)cc1` ?
Response: < 100 nM

All values here come from patent US12435051B2.
